System: SK-MEL-28 melanoma
experiment notes: NCI tumour cell line growth inhibition, 48 h
Could you please report measured TGI for the items listed next?

Challenge: Report TGI for O=[N+]([O-])c1cccc(-c2ncnc(-c3cccc([N+](=O)[O-])c3)n2)c1
Response given: > 100 µM

Challenge: Report TGI for Nc1nc(-c2ccccc2)cc(-c2ccccc2O)n1
Response given: > 100 µM

Challenge: Report TGI for CCOC(=O)c1c(-c2ccccc2)oc(=O)c(Cc2cccc3cccnc23)c1-c1ccccc1
Response given: > 10 µM

Challenge: Report TGI for CC(C)(C)C(=O)CC1(O)C=C(O)C(O)(CC(=O)C(C)(C)C)O1 (configuration not stated)
Response given: > 100 µM

Challenge: Report TGI for CN(C)CCCCC1CCN(CC(=O)N2c3ccccc3NC(=O)c3ccccc32)CC1
Response given: > 100 µM

Challenge: Report TGI for O=c1[nH]c2ccc(N=Cc3c(O)[nH]c4ccccc34)cc2[nH]1
Response given: > 25 µM

Challenge: Report TGI for CCN(CC)c1ccc2c(cc1=O)[C@@H](NC(C)=O)CCc1cc(OC)c(OC)c(OC)c1-2
Response given: > 100 µM

Challenge: Report TGI for ClCCN1CCOC1=C1C=CC=C1
Response given: > 100 µM

Challenge: Report TGI for O=C1OC(CC(=O)c2ccccc2Cl)C(Cl)=C1Cl (configuration not stated)
Response given: > 100 µM

Challenge: Report TGI for O=[N+]([O-])c1ccc(N=Nc2c(O)[nH]c3ccc(Br)cc23)cc1
Response given: 32.9 µM

Challenge: Report TGI for CCc1nc(N)nc(N)c1-c1ccc(Cc2ccccc2)c([N+](=O)[O-])c1
Response given: > 100 µM

Challenge: Report TGI for CC(C)(C)OC(=O)NCC(c1c[nH]c2ccc(Br)cc12)c1c[nH]c2ccc(Br)cc12
Response given: 34.9 µM

Challenge: Report TGI for CC(O)(CCCCCl)c1nc2ccccc2s1 (configuration not stated)
Response given: > 100 µM

Challenge: Report TGI for CSc1nc(SC)c2cnn(CC3CO3)c2n1 (configuration not stated)
Response given: 18.6 µM

Challenge: Report TGI for CCc1c(C)[nH]c2c1/C(=N/N=C1\CCCc3[nH]c(C)c(CC)c31)CCC2
Response given: 35.9 µM

Challenge: Report TGI for COC(=S)OC1CC(n2cnc3c(=O)[nH]cnc32)OC1CO[Si](C)(C)C(C)(C)C (configuration not stated)
Response given: > 100 µM

Challenge: Report TGI for Oc1c(Cl)cc(Cl)c2ccc(Cn3cc(-c4cc(F)cc(F)c4)nn3)nc12
Response given: 4.18 µM

###

Could you please report measured TGI for the items listed next?
System: NCI/ADR-RES ovarian
experiment notes: NCI tumour cell line growth inhibition, 48 h

Challenge: Report TGI for CSc1nc(SC)c2cnn(CC3CO3)c2n1 (stereo not given)
Response given: 36.3 µM

Challenge: Report TGI for FC(F)(F)CNc1nccc(-c2cnn3ncccc23)n1
Response given: > 25 µM

Challenge: Report TGI for CCOCCOc1ccc(OCCOCC)cc1
Response given: 39.3 µM

Challenge: Report TGI for Cc1cc(Nc2ncc(F)c(N[C@H]3[C@@H](C(N)=O)[C@@H]4C=C[C@H]3C4)n2)ccc1N1CCN(C)CC1
Response given: 8.57 µM

Challenge: Report TGI for CCC1([N+](=O)[O-])CC2C=CC1C2 (stereo not given)
Response given: > 100 µM

Challenge: Report TGI for C=CCCC1CCCCC/C1=N\N(C)C (stereo not given)
Response given: > 100 µM

Challenge: Report TGI for COC(=O)C(=O)C(C(=O)OC)C(=O)C(=O)Nc1ccccc1C(N)=O (stereo not given)
Response given: > 100 µM

Challenge: Report TGI for O=C(O)COc1cc(-c2ccccc2)nc2ccc(F)cc12
Response given: > 100 µM

Challenge: Report TGI for CCn1cc(C(=O)N/N=C/c2ccc(Br)cc2)c(=O)c2cc(F)c(N3CCNC(C)C3)c(F)c21 (stereo not given)
Response given: 3.69 µM

Challenge: Report TGI for O=C1CC2(CCC(O)(c3cccc4ccccc34)C(C(=O)c3cccc4ccccc34)C2)C(=O)c2ccccc2N1 (stereo not given)
Response given: > 100 µM

Challenge: Report TGI for O=c1c2ccccc2n2c(=S)[nH]nc2n1-c1ccccc1
Response given: > 100 µM

Challenge: Report TGI for CC(=O)OC1Oc2ccc(C)cc2-c2oc(=O)c(-c3cc4ccccc4oc3=O)cc21 (stereo not given)
Response given: 18.1 µM

Challenge: Report TGI for CCOC(=O)/C=C(/OCC)[C@@H]1C(C(=O)c2ccc(Cl)cc2)[C@H]1/C(=C\C(=O)OCC)OCC (stereo not given in full)
Response given: > 100 µM

Challenge: Report TGI for COc1cc2c(cc1OCCCCCN1CCN(c3cc(=O)oc4ccccc34)CC1)N=C[C@@H]1CCCN1C2=O
Response given: > 22 µM

Challenge: Report TGI for OC1(c2ccccc2)CCCCCCCCC(O)(c2ccccc2)CCCCCCCC1 (stereo not given)
Response given: > 100 µM

Challenge: Report TGI for CCOC(=O)c1c(-c2ccccc2)oc(=O)c(Cc2cccc3cccnc23)c1-c1ccccc1
Response given: > 10 µM

Challenge: Report TGI for CC(=O)OCC1OC(N2C(=S)N[C@H]([C@@H](O)[C@H](O)[C@H](O)CO)[C@H]2O)C(OC(C)=O)C(OC(C)=O)C1OC(C)=O (stereo not given in full)
Response given: > 100 µM

Challenge: Report TGI for CC1(C(=O)O)CCC(C(=O)O)C(C)(C)O1 (stereo not given)
Response given: > 100 µM

Challenge: Report TGI for CC(C)(C)N/N=C(\C(=O)Nc1ccc([N+](=O)[O-])cc1[N+](=O)[O-])c1nc2ccc([N+](=O)[O-])cc2[nH]c1=O
Response given: > 100 µM

Challenge: Report TGI for CC(C)(C)OC(=O)NCCCCCCC(=O)Cc1ccccc1
Response given: > 100 µM

Challenge: Report TGI for O=C(CC(Cl)(Cl)C(Cl)(Cl)Cl)c1ccccc1
Response given: 43.9 µM

Challenge: Report TGI for Cc1n[nH]c(=O)n1-c1cccnc1
Response given: > 100 µM

Challenge: Report TGI for CCOc1ccc(NC(=O)/C(=N\N)C(C(=O)OC)c2nc3ccc(Cl)cc3[nH]c2=O)cc1 (stereo not given)
Response given: > 100 µM

Challenge: Report TGI for COc1ccc2c(c1OC)CO[C@@H]2[C@H]1c2c(c(Br)c3c(c2OC)OCO3)CCN1C
Response given: > 100 µM

Challenge: Report TGI for Oc1c(Cl)cc(Cl)c2ccc(Cn3cc(-c4cc(F)cc(F)c4)nn3)nc12
Response given: 85.3 µM
